Test system: HIV-1 Env-pseudoviruses (208-strain panel)
experimentalDetails: microbe, parasite or virus in culture
Assay type: cell-based
recordedConditions: Human immunodeficiency virus 1, TZM-bl, MS208.A1, clade A; read-out: IC50
pIC50: −log10 of the molar value.
experimentalReadout: pIC50

> print(dat)
                                 smilestext                             assayedsystem  readoutnumber
1  COc1cnc(-c2csc(C(=O)NCCO)n2)c2[nH]cc(C(=O)C(=O)N3CCC(=C(C#N)c4ccccc4)CC3)c12  HIV-1 Env-pseudoviruses (208-strain panel)           9.52

----------
Tested on: HIV-1 Env-pseudoviruses (208-strain panel)
experimentalDetails: microbe, parasite or virus in culture
Format: cell-based
recordedConditions: Human immunodeficiency virus 1, TZM-bl, BR025.9, clade C; read-out: IC50
pIC50: −log10 of the molar value.
experimentalReadout: pIC50

> print(dat)
                                 smilestext  readoutnumber
1  COc1cnc(-c2csc(C(=O)NCCO)n2)c2[nH]cc(C(=O)C(=O)N3CCC(=C(C#N)c4ccccc4)CC3)c12           6.06

----------
Test system: HIV-1 Env-pseudoviruses (30-strain panel)
experimentalDetails: Neutralization assay, cross-clade 30-strain panel (Env-pseudoviruses, TZM-bl target cells)
Format: cell-based
recordedConditions: Human immunodeficiency virus 1, TZM-bl, P0402.c2.11 (Clade G); read-out: IC50
experimentalReadout: IC50 (nM)

> print(dat)
                                   compound  relationsymbol  readoutnumber
1  O=C(C(=O)N1CCN(C(=O)c2ccccc2)CC1)c1c[nH]c2c(F)ccc(Br)c12               >          20000
2  COc1cnc(-c2csc(CN(C)CCCN(C)C)n2)c2[nH]cc(C(=O)C(=O)N3CCC(=C(C#N)c4ccccc4)CC3)c12               =             12
3  O=C(c1ccsc1)N1CCN(C(=O)C2(c3cccc(Cl)c3)CC2)CC1 [Compound 484, reference compound]               >          20000
4  COc1cnc(-c2csc(C(=O)NCCO)n2)c2[nH]cc(C(=O)C(=O)N3CCC(=C(C#N)c4ccccc4)CC3)c12               <            0.3
5  COc1cnc(-n2cnc(C)n2)c2[nH]cc(C(=O)C(=O)N3CCN(C(=O)c4ccccc4)CC3)c12               =             17

----------
System: HIV-1 Env-pseudoviruses (208-strain panel)
experimentalDetails: microbe, parasite or virus in culture
Type: cell-based
recordedConditions: Human immunodeficiency virus 1, TZM-bl, MB539.2B7, clade A; read-out: IC50
experimentalReadout: IC50 (nM)

> print(dat)
                                 smilestext                             assayedsystem  readoutnumber
1  COc1cnc(-c2csc(C(=O)NCCO)n2)c2[nH]cc(C(=O)C(=O)N3CCC(=C(C#N)c4ccccc4)CC3)c12  HIV-1 Env-pseudoviruses (208-strain panel)              2

----------
Test system: HIV-1 Env-pseudoviruses (208-strain panel)
experimentalDetails: microbe, parasite or virus in culture
Format: cell-based
recordedConditions: Human immunodeficiency virus 1, TZM-bl, 3988.25, clade B; read-out: IC50
pIC50: −log10 of the molar value.
experimentalReadout: pIC50

> print(dat)
                                 smilestext  readoutnumber
1  COc1cnc(-c2csc(C(=O)NCCO)n2)c2[nH]cc(C(=O)C(=O)N3CCC(=C(C#N)c4ccccc4)CC3)c12          10.00
